- Test system: SNB-75 CNS
- Experiment summary: NCI tumour cell line growth inhibition, 48 h; in the data active = GI50 below about 0.43 µM; inactive = the rest
The reply should be one of these categories: active, inactive

Past entries and their recorded results:
Compound: CCN1C(=O)N(CC)C2C1NN=c1s/c(=C\c3cccc(F)c3)c(=O)n12 (stereo unspecified)
Assigned label: active
--
Compound: O=C(Oc1cccc(F)c1OC(=O)c1cccc(O)c1)c1cccc(O)c1
Assigned label: inactive

Recorded test call requested for CN1CCC2(CC1)ONC1=NCCN12
inactive

I would be grateful if you could indicate the recorded call for O=C(c1ccccc1)c1ccccc1-c1ccccc1 .
inactive

Returns: the outcome recorded for C[C@@]1(C(=O)O)CCC[C@]2(C)C1CC[C@@]13CC(=O)[C@@](CO)(CC[C@]12O)C3 (stereo partly specified) in this assay.
inactive

Recorded call for O=C(CCCCCCNC(=O)c1cnc(N(c2ccccc2)c2ccccc2)nc1)NO ?
inactive

Call for entry C[C@]12CC[C@@H]3c4ccc(OC(=O)N(CCCl)CCCl)cc4CC[C@H]3[C@@H]1CC[C@@H]2O :
inactive

---

- Test system: NCI-H522 lung
- Experiment summary: NCI tumour cell line growth inhibition, 48 h
Test readout: TGI (µM)
Answers are plain numbers, in µM.

Recorded TGI, per entry:
Compound: NS(=O)(=O)c1ccc(-n2nc(-c3ccc(Cl)cc3)cc2-c2cc(O)ccc2O)cc1
Reported: 6.71
--
Compound: O=c1cc(-c2ccccc2)[nH]c2ccc(N3CCOCC3)cc12
Reported: 0.404
--
Compound: CCOC(=O)N1CCN(/[N+]([O-])=N/Oc2ccc([N+](=O)[O-])cc2[N+](=O)[O-])CC1
Reported: 22.4

Attention now shifts to the item below.
Using NCI-H522 lung as the test system, report measured TGI of CC(C)=CC1C[C@H](C2CC=C3C2(C)CCC2[C@@]3(C)C(=O)CC3[C@]2(C)C=CC(=O)[C@]3(C)CO)CO1 (stereo not given in full) .
8.71

---

- Tested on: HOP-18 NSCLC
- Experiment summary: NCI tumour cell line growth inhibition, 48 h
Test readout: TGI

# count of solved cases: 10
Compound: Cc1cc(CC(=O)NCCO)n(CCO)c(=O)c1
Test readout: TGI
Reported: > 100 µM
//
Compound: COc1ccc(C23C(=O)c4ccccc4N2O[C@H]2C(=O)N(c4ccccc4)C(=O)[C@H]23)cc1 (stereo partly specified)
Test readout: TGI
Reported: > 100 µM
//
Compound: C=C1C(=O)O[C@@H]2C[C@@H](C)[C@@H]3C=CC(=O)[C@@]3(C)[C@@H](O)[C@H]12
Test readout: TGI
Reported: 3.53 µM
//
Compound: CSc1nc(NC2OCC(O)C(O)C2O)c(N)c(=O)[nH]1 (stereo unspecified)
Test readout: TGI
Reported: > 100 µM
//
Compound: O=C1CC(O)CC(=O)C1=C(O)CCCCCCCCCCc1ccccc1 (stereo unspecified)
Test readout: TGI
Reported: > 100 µM
//
Compound: Cc1nnn[n-]1.N.N.N.N.N.[Cl-].[Co+3]
Test readout: TGI
Reported: > 100 µM
//
Compound: O/N=C1/C(=C/c2ccc3c(c2)OCO3)CCCC1C(NO)c1ccc2c(c1)OCO2 (stereo unspecified)
Test readout: TGI
Reported: 42.5 µM
//
Compound: CN(O)C(=O)SCC(NC(=O)CCC(N)C(=O)O)C(=O)NCC(=O)O (stereo unspecified)
Test readout: TGI
Reported: > 2000 µM
//
Compound: CCOC(=O)c1nn2c(nc1=O)sc1ccc3ccccc3c12
Test readout: TGI
Reported: > 100 µM
//
Compound: O=c1cc(-c2ccccc2)c2ccccc2[nH]1
Test readout: TGI
Reported: > 100 µM

As a next step, examine the compound that follows.
Give me measured TGI, please, for this compound: CSC(=Nc1nnc(-c2ccc([N+](=O)[O-])cc2)s1)SC
> 71.6 µM
